Where do the numbers come from? From the nanobody polyreactivity screen of Harvey et al. (2022).

assay: yeast display, Sf9 membrane polyspecificity reagent, FACS + sequencing; frameworks hold sequencing errors
value.kind: polyreactivity (PSR sort gate)

{"columns": ["macromolecule.sequence", "value"],
 "data": [
  ["QVQLVESGGGLVQAGGSLRLSCAASGLIFDIYAMGWYRQAPGKERELVATISKRGGTTSYADSVKGRFTISRDNAKNTVYLQMNSLKPEDTAVYYCAATTLIAYDYWGQGTQVTVSS", "high polyreactivity"],
  ["QVQLVESGGGLVQAGGSLRLSCAASGNIFSSNAMGWYRQAPGKERELVAAISASGGNTYYADSVKGRFTISRDNAKNTVYLQINSLKPEDTAVYYCNAYRGGYLRRGYYYWGQGSQVTVSS", "high polyreactivity"]
]}

----------
assay: yeast display, Sf9 membrane polyspecificity reagent, FACS + sequencing; frameworks hold sequencing errors

{"columns": ["macromolecule.sequence", "polyreactivity (PSR sort gate)"],
 "data": [
  ["QVQLVESGGGLVQAVGSLRLSCAASGSIFRKYVMGWYRQAPGKERELVAVISSGTGTYYADSVKGRFTISRDNAKNSVYLQMNSLKPEDTAVYYCAAKYFGKWYKYYYWGQGTQVTVSS", "high polyreactivity"],
  ["LVQLVESGGGLVQAGGSLRLSCAASGSTSRKYTMGWYRQSPGKERELVARITSSGSSTYYADSVKGRFTISRDTAKNTVYLQMNSLKAEDTADYYCNARAHSDRKSSYIYLPYSYDYWGQGTQVTVSS", "high polyreactivity"],
  ["QVQLVESGGGLVQAGGSLRLSCAASGSTIKTYATMGWYRQAPGKERELVAAITACTSTNYADSVKGRFTISRDNAKNTVYLQMNSLKPEDTAVYYGAADDYYNWYLGEPGDYWGQGTQVTVSS", "low polyreactivity"],
  ["QVQLVESGGGLVQAGGSLRLSCAASGSTFLTYAMGWYRQAPGKERELVAAISIAGSTYYADSVKGRFTISRDNAKNTVYLQMNSLKPEDTAVYYCAADIFERGPVPDRHNGYDYWRQGTQVTVSS", "low polyreactivity"],
  ["QVQLVDTGRGLVQAGGSLRLSCAPSGRTFGYNAMGWYRQAPGKERELVAAINWSGASTYYADSVKWRFTISRDNAKNTVYLQMKSLKPEDTAVYYCAADYSYIYGFDYWGQGTQVTVST", "low polyreactivity"]
]}

----------
assay: yeast display, Sf9 membrane polyspecificity reagent, FACS + sequencing; frameworks hold sequencing errors
value.kind: polyreactivity (PSR sort gate)

{"columns": ["macromolecule.sequence", "value"],
 "data": [
  ["QVKLVESGGGLVQAGGSLRLSCAASGFTFEEYAMGCYRQSPGKERELVAAISASGGRTYYADSVKRRFTISRDNAKNTVYLQMNSLKPEDTAVYYCAAGYRGRRIMDYWGQGTQVTVSS", "high polyreactivity"],
  ["QVQLVESGGGLVQAGGSLRLSCAASGLTFDPYAMGWYRQAPGKEREFVATITTSGDSTYYADSVKGRFTISRDNAKNTVYLQMNSLKPEDTAVYYCNTQSRTLGWPLDYWGQGTQVTVSS", "high polyreactivity"]
]}

----------
assay: yeast display, Sf9 membrane polyspecificity reagent, FACS + sequencing; frameworks hold sequencing errors

{"columns": ["macromolecule.sequence", "polyreactivity (PSR sort gate)"],
 "data": [
  ["QVKLVESGGGLVQAGGSLRLSCAASGFTYSANTMGWSRQAPGKERELVAAITRGGRPYYADSVKGRFTISRDNAKNTVYFQMNSLKPEDTAVYYCAKRATWYTVPREGYWGQGTQVTVSS", "high polyreactivity"],
  ["QVQLVESGGGLVQAGGSLRLSCSASGFIFYSYAMGWSRPAPGKEREFVAAISRSGGITYYADSVKGRFTISRDNAKNTVYLQMNSLKPEDTAVYYCAKVGRAVSSIKDMDSWGQGTQVTVSS", "high polyreactivity"],
  ["QVQLVESGGGLVKAGGSLRLSCAASGRIFKYYAMGWYRQAPGKERELVAAISSVGSTNYADSVKGRFTISRDNAKNTVYLQMNSLKPEDTGVYYCAAPYQHYDVNYDSWGQGTQVTVSS", "low polyreactivity"],
  ["QVQLVESGGGLVQAGGSLRLSCAASGLNFYYYTMGWYREAPGKERELVATISRSGTSTNYADSVKGRFTISRDNAKNTVYLQMNSLKPEDTAVYYCAAVLRWRDLFSEYYYLGQGTQVTVSS", "high polyreactivity"],
  ["QVQLVESGGGLVQAGGSLRLSCAASGRTFGDYAMGWYRQAPGKERELVAAISKSGGITYYADSVKGRFTISRDNAKNTVYLQMNSLKPEDTAVYYCNADGSPFYYSGYDYWGQGTQVTVSS", "high polyreactivity"],
  ["QVQLVESGGGLVQAGGSLRLSCAASGRTFFWYAMGWYRQAPGKERELVAAITYRGGGTYYADSVKGRFTISRDNAKNTVYLQMNSLKPEDTAVYYCAAEYWVGVYLYDYWGQGTQVTVSS", "high polyreactivity"],
  ["QVQLVESGGGLVQAGGSLRLSCAASGSTFPRNAMGWYRQAPGKERELVAAISSGGSTYYADSVKWRFTISRDNAKNTVYLQMNSLKPEDTAVYYCAARLYWPIIVVDLYGYDYWGQGTQVTVSS", "low polyreactivity"],
  ["QVHVVESGGGLVQAGVSLLLSCAASGRTFYRNAMGWYRQAPGKERELVAAISSRGGSTYYADSVKGRFTISRDNAKNTVYLQMNSLKPEDTAVYYCAANYGYGGDYDYWVQGTQVTVSS", "high polyreactivity"],
  ["QVQLVESGGGLVQAGGSLRLSCAASGGTFQRYVMGWYIQAPGKERELVAAISRSGSTYADSVKGRFTISRDNAKNTVYLQMNSLKPEDTAFYYCNVVRYYRYYLHGYDYWGQGTQVTVSS", "high polyreactivity"],
  ["QVQLVESGGGLVQAGGSLRLSWAASGFTFTPYAMGWYRPAPGKEREFVAAISQRGTSTFYADSVKGRFTISRDNAKHTVYLQMNSLKPEDTAVYYCAKPYRQYTSAYYNTYNYWGQGTEVTVSS", "high polyreactivity"],
  ["QVQLVESGGGLVQAGGSLRLSCAASGRIFGYYAMGWYRQAPGKERELVAAISSSGTSTYYADSVKGRFTISRDNAKNTVYLQMNSLKPEDTAVYYCAAYTYYEGDYWGQGTQVTVSS", "low polyreactivity"],
  ["QVQLVESGGGLVQAGGSLRLSCAASGLILSRNVMGWYRQAPGKERELVAAINWSSGSTYYADSVKGRFTISRDNGKNTVSLQMNSLKPEDTAVYYCAATVFYDAEYDYWGQGSQVTVSS", "high polyreactivity"],
  ["QVQLVESGGGLVQAGGSLRLSCAASGRIFTAYDMGWYRQAPGKERELVAAITRSSGSTYYADSVKGRFTISRDNAKNTVYLQMNSLKGEDTAVYYCATDGEFWGYDSWGQGTQVTVSS", "low polyreactivity"],
  ["QVQLVESGGGLVQAGGSLRLSCAASGIIIDTNAMGWYRQAPGTERELVASISKRGGSTYYADSVKGRFTISRDNAKNTVYLQMNSLKPEDTAVYYCNALRRRQYHDDYWGQGTQVTVSS", "high polyreactivity"],
  ["QVQLVESGGGLVQAGGSLRLSCAPSGFIFIRYAMGWYRQAPGKERELVASISWRGESTYYADSVKWRFTISRDNAKNTVYLQRNILKPEDTAVYYCAATGINSGPGRMDYWGQGTQVTVSS", "high polyreactivity"],
  ["QVQLVESGGGLVQAGGSLRLSCAASGRISDVYVMVWYRQAPGKERELFAAITWSGGDTYYADSVKGRFTISRDNAKNTVYLQMNSLKPEDTEVYYCTADTGKWGGNGWYDFDYWGQGTQVTVSS", "low polyreactivity"],
  ["QDHLVESGVGLVQAGGSLRLSCAASGFAFWTYTMGWYRQAPGKERELVATITRGGRTKYADSVKGRFTISRDNAKNTVYLQMNSLKPEDTAVYYCAAARRRTGVRMDYWGLGTQVTVSS", "high polyreactivity"],
  ["QVQRVESGGGLVQAGGSLRLSCAASGSIFYWYAMGWNIQAPGEEREFVAAITWSGGSTYYADSVKGRFTISRDNAKNTVYLQMNSLQPEDTAVYSCAAQGRRYGYGDFYYWGQGSQVTVSS", "high polyreactivity"],
  ["QVQLVESGGGLVQAGGSLRLSCAASGSIFTSYGMGWYRQAPGKERELVAAITYSGDRTYYADSVKGRFTISRDNAKITVYFQMNSLIPEDTAVYYCNVAYVYGSFRRRPMGYWGQGTQVTVSS", "high polyreactivity"],
  ["QVQLVESGGGLVQAGGSLRLSCAASGRIFGTNAMGWYRQAPGKESELVATITRGGGNTYYADSVKGRFTISRDNAKNTVYLQMNSLKQEDTAVYYCNTRRLHGWLYGYEYWGQGTQVTVSS", "low polyreactivity"],
  ["QVQHVESAGGLVQEGGSLRLSCAASGSTSVKYPMGWYRQAPGKERELVAAIRKRGDSTYYADSVKGRFTISRDNAKNTVYLQMNSLKPEDTAVYYCAAQYLRGRGYWGQGTQVTVSS", "low polyreactivity"]
]}
